- details: in isopropanol, 287.95 K

input_smiles	solubility (mole fraction)
COC(=O)C(C)(C)N=NC(C)(C)C(=O)OC	0.345

====

- details: in acetonitrile, 269.15 K
quantity_name: solubility (mole fraction)

input_smiles	result
COC(=O)C(C)(C)N=NC(C)(C)C(=O)OC	0.18

====

- details: in dichloromethane, 293.15 K
quantity_name: solubility (mole fraction)

input_smiles	quantity_name	result_number
COC(=O)C(C)(C)N=NC(C)(C)C(=O)OC	solubility (mole fraction)	0.73

====

- details: in methanol, 255.35 K
quantity_name: solubility (mole fraction)

input_smiles	quantity_name	result
COC(=O)C(C)(C)N=NC(C)(C)C(=O)OC	solubility (mole fraction)	0.0156

====

- details: in isobutanol, 256.55 K
quantity_name: solubility (mole fraction)

input_smiles	result_number
COC(=O)C(C)(C)N=NC(C)(C)C(=O)OC	0.0084

====

- details: in acetone, 287.95 K
quantity_name: solubility (mole fraction)

input_smiles	result_number
COC(=O)C(C)(C)N=NC(C)(C)C(=O)OC	0.591

====

- details: in acetone, 267.65 K
quantity_name: solubility (mole fraction)

input_smiles	quantity_name	result_number
COC(=O)C(C)(C)N=NC(C)(C)C(=O)OC	solubility (mole fraction)	0.201

====

- details: in n-butanol, 273.65 K
quantity_name: solubility (mole fraction)

input_smiles	result_number
COC(=O)C(C)(C)N=NC(C)(C)C(=O)OC	0.0385

====

- details: in methanol, 278.65 K
quantity_name: solubility (mole fraction)

input_smiles	quantity_name	result_number
COC(=O)C(C)(C)N=NC(C)(C)C(=O)OC	solubility (mole fraction)	0.0863

====

- details: in isopropanol, 268.75 K
quantity_name: solubility (mole fraction)

input_smiles	result_number
COC(=O)C(C)(C)N=NC(C)(C)C(=O)OC	0.0272

====

- details: in acetone, 285.65 K

input_smiles	solubility (mole fraction)
COC(=O)C(C)(C)N=NC(C)(C)C(=O)OC	0.524

====

- details: in THF, 273.65 K

input_smiles	solubility (mole fraction)
COC(=O)C(C)(C)N=NC(C)(C)C(=O)OC	0.326
